- assayInfo: CCTE_Shafer_MEA_acute_network_burst_percentage: CCTE's Neural Acute Assay for Percentage of Network Bursts, Shafer Lab (AID 2284022);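 also: curves fitted for loss so actives lower network burst percentage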
The source made the active and inactive calls. The calls were made as follows: active = hit-call score of the fitted dose curve at least 0.9, where 1 is the maximum; inactive = score below 0.9.
Give your call using only these classes: active, inactive

Below are worked cases with known answers.
[
  {
    "compound": "CCCN(CCC)N=O",
    "categoryLabel": "inactive"
  },
  {
    "compound": "c1ccc(-c2ccccc2)cc1",
    "categoryLabel": "inactive"
  },
  {
    "compound": "ClC(Cl)=C(c1ccc(Cl)cc1)c1ccc(Cl)cc1",
    "categoryLabel": "inactive"
  },
  {
    "compound": "CCC(C)(c1ccc(O)cc1)c1ccc(O)cc1",
    "categoryLabel": "active"
  },
  {
    "compound": "O=C(NC(=O)c1c(F)cccc1F)Nc1cc(Cl)c(OC(F)(F)C(F)F)c(Cl)c1",
    "categoryLabel": "active"
  }
]

Task: Hi, do you know how "ClC1=C(Cl)[C@]2(Cl)[C@@H]3[C@@H]4C[C@@H]([C@H]5O[C@@H]45)[C@@H]3[C@@]1(Cl)C2(Cl)Cl" came out in this test?
Result: active

Task: Hi, do you know how "CCC(C)(CC)c1cc(NC(=O)c2c(OC)cccc2OC)on1" came out in this test?
Result: inactive

Task: Hi, do you know how "O=C(O)C(F)(F)C(F)(F)C(F)(F)C(F)(F)C(F)(F)F" came out in this test?
Result: inactive

Task: Hi, do you know how "CN(C)CCO" came out in this test?
Result: inactive

Task: Hi, do you know how "CCSC(=O)N(CC)C1CCCCC1" came out in this test?
Result: inactive

Task: Hi, do you know how "Clc1ccc(C(Cl)(Cl)Cl)cc1" came out in this test?
Result: inactive

Task: Hi, do you know how "Nc1ccc(-c2ccc(N)cc2)cc1" came out in this test?
Result: inactive

Task: Hi, do you know how "ClC1=C(Cl)[C@]2(Cl)[C@@H]3[C@@H](Cl)[C@H]4O[C@H]4[C@@H]3C1(Cl)C2(Cl)Cl" came out in this test?
Result: active

Task: Hi, do you know how "CC(c1ccc(O)cc1)(c1ccc(O)cc1)c1ccc(O)cc1" came out in this test?
Result: inactive

* * *

- Read-out: Tissue Factor, F3 (gene 2152)
- assayInfo: BSK_LPS_TissueFactor: BioMAP Diversity Plus: LPS Assay for Tissue Factor Biomarker Activity (AID 2283084)
- conditionLabel: primary human HUVEC with PBMC; actives raise or lower the signal
Calls of active or inactive are those of the source. How the source made its calls: active means hit-call score of the fitted dose curve at least 0.9, where 1 is the maximum; inactive means score below 0.9.
Give your call using only these classes: yes (1) = active, no (0) = inactive

Below are worked cases with known answers.
[
  {
    "compound": "Cc1ccccc1O",
    "categoryLabel": "no (0)"
  },
  {
    "compound": "CCSC(=O)N(CC)C1CCCCC1",
    "categoryLabel": "no (0)"
  },
  {
    "compound": "CCCCCCCCCC[N+](C)(C)CCCCCCCCCC",
    "categoryLabel": "yes (1)"
  },
  {
    "compound": "CCCCCCCCCc1ccc(O)cc1",
    "categoryLabel": "yes (1)"
  },
  {
    "compound": "ClC(Cl)=C(c1ccc(Cl)cc1)c1ccc(Cl)cc1",
    "categoryLabel": "yes (1)"
  }
]

Continue with the next compound.
Task: Hi, do you know how "Cc1ccccc1CO[C@@H]1C[C@@]2(C(C)C)CC[C@]1(C)O2" came out in this test?
Result: no (0)

Where do these numbers come from? They come from PubChem BioAssay (EPA / NIEHS).
